A collection of compounds and their measured AUC(0-t)
assay: In vivo pharmacokinetic study, plasma and brain; design: species or system male Wistar rats; settings: male, Wistar, po; brain, rat, 10 mg/kg p.o.
measured endpoint: AUC(0-t) (ng·h/mL)

{"compound": "O=C(N[C@H]1CCNC1)c1ccn(S(=O)(=O)c2cccc(Cl)c2)c1-c1ccc(F)cc1 [Compound 28]", "measured endpoint": "AUC(0-t)", "observed measurement": 289}
{"compound": "O=C(N[C@@H]1CCNC1)c1ccn(S(=O)(=O)c2cccc(Cl)c2)c1-c1ccc(F)cc1 [Compound 27]", "measured endpoint": "AUC(0-t)", "observed measurement": 812}
